experiment: gradient 5% acetonitrile 3 min, to 50% in 2 min, to 85% in 15 min, held 3 min, 100 µL/min; conditions: column: Zorbax Extend-C18 2.1 x 50 mm; eluents: water / acetonitrile, 0.1% formic acid
In this scheme, each record receives a class according to its RP-LC retention time; the ranges are low-valued (below 700 s), mid-valued (700 s to below 900 s), high-valued (900 s or more)

Example cases with answers are listed next.
| Molecule | Label |
| --- | --- |
| O=C(Cn1nc(N2CCOCC2)c2ccccc2c1=O)N1CCN(c2ccccc2)CC1 | mid-valued |
| O=C(C1=NN(Cc2ccccc2)c2cc(Cl)ccc2S1(=O)=O)N1CCOCC1 | mid-valued |
| CN(C)C[C@@H]1CN(C)C[C@H]1NC(=O)c1ccc(Br)cc1 | low-valued |
| CCN(CC)CCNC(=O)C1c2ccccc2Oc2ccccc21 | low-valued |
| COCc1nncn1C1CCN(S(=O)(=O)c2ccc(Cl)cc2C)CC1 | mid-valued |

Request: Would you mind sorting Cc1ccc(C(C)NC(=O)C2CCCN(c3nc4c(s3)c(C)nn4-c3ccc(F)cc3)C2)cc1 (centres undefined) into the appropriate category?
Response: high-valued

Request: Would you mind sorting Cn1c(N2CCCC(C(=O)Nc3nccs3)C2)cc(=O)n(C)c1=O (centres undefined) into the appropriate category?
Response: low-valued

Request: Would you mind sorting CN(C1CCc2nn(C)c(=O)n2CC1)S(=O)(=O)c1cccc2cccnc12 (centres undefined) into the appropriate category?
Response: low-valued

Request: Would you mind sorting CC(C)C(=O)Nc1cccnc1 into the appropriate category?
Response: low-valued

Request: Would you mind sorting Cc1oc(-c2[nH]ncc2C(=O)N2CCCC2)cc1S(=O)(=O)N1CCN(C)CC1 into the appropriate category?
Response: low-valued

Request: Would you mind sorting Cc1nnc2ccc(-c3noc(Cc4ccc(F)cc4)n3)cn12 into the appropriate category?
Response: mid-valued

Request: Would you mind sorting Cc1ccc(CNC(=O)N2CCN(CCn3c(C(F)(F)F)nc4cccnc43)CC2)cc1 into the appropriate category?
Response: low-valued

Request: Would you mind sorting CC(C)C(=O)Nc1ccc(N2CCN(c3ccccc3)C2=O)nc1 into the appropriate category?
Response: mid-valued

Request: Would you mind sorting CCCOc1nc2ccccc2nc1N1CCCC(C(=O)NCc2ccco2)C1 (centres undefined) into the appropriate category?
Response: high-valued

Request: Would you mind sorting Cn1c(=O)c2cc(C(=O)Nc3ccc(F)c(F)c3)cnc2n(-c2ccccc2)c1=O into the appropriate category?
Response: high-valued

Request: Would you mind sorting COCCC(=O)N1CCN(c2ncccc2-c2nnc(C(C)C)o2)CC1 into the appropriate category?
Response: low-valued

Request: Would you mind sorting COc1ncccc1CNC(=O)COc1ccccc1 into the appropriate category?
Response: low-valued
